# testedTarget: DDR1 (Homo sapiens (Human))
# Sequence (Q08345 19-913): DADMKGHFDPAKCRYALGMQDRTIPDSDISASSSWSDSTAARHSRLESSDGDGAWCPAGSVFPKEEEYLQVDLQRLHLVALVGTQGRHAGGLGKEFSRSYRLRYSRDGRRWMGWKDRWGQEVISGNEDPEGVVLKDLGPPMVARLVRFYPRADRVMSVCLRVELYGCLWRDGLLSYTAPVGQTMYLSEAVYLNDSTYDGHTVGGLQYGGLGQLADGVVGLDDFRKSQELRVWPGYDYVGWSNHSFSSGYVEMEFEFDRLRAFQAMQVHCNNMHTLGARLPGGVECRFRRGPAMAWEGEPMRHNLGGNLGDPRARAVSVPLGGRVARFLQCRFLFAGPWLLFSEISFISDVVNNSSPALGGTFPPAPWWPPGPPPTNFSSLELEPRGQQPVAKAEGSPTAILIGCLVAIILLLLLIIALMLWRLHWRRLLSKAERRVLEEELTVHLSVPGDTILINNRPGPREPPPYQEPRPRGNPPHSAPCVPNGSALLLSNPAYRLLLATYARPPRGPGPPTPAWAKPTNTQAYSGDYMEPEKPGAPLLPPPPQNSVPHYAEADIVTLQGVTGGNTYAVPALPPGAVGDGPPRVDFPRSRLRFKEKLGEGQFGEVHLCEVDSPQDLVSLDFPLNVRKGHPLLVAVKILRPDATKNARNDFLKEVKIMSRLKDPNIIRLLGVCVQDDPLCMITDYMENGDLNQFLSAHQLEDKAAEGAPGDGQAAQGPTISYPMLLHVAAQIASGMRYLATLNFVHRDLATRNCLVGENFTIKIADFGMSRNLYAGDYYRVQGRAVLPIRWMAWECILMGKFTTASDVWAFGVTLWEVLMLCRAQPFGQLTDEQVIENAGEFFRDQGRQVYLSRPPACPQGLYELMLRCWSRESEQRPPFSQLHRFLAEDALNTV
# assayDetails: DDR1 binding assay (LanthaScreen Europium Kinase Binding assay)
# condition: 5 nM DDR1, 20 nM Kinase Tracer 178, 1 h at rt; Ki from IC50 by Cheng-Prusoff; read-out: Ki DDR1
attributeMeasured: Ki

Example cases with answers are listed next.
>  <smilesData>
Cc1ccc(C(=O)Nc2cncc(C(F)(F)F)c2)cc1OC1CN(c2cncnc2)C1

>  <result>
< 5 nM

$$$$
>  <smilesData>
Cc1ccc(C(=O)Nc2cncc(C(F)(F)F)c2)cc1NC1CN(c2cnn3cccnc23)C1

>  <result>
5 to 25 nM

$$$$
>  <smilesData>
CC(=O)Nc1cncc(N2CC(Oc3cc(C(=O)Nc4cncc(C(F)(F)F)c4)ccc3C)C2)c1

>  <result>
< 5 nM

$$$$
>  <smilesData>
Cc1ccc(OC(F)(F)F)cc1NC(=O)c1ccc(C)c(OC2CN(c3cnn4ccncc34)C2)c1

>  <result>
< 5 nM

$$$$
>  <smilesData>
Cc1ccc(C(=O)Nc2cncc(C(F)(F)F)c2)cc1OC1CN(c2cnn3cccnc23)C1

>  <result>
< 5 nM

$$$$
>  <smilesData>
Cc1ccc(C(=O)Nc2cncc(C(F)(F)F)c2)cc1C1CN(c2cnn3ccncc23)C1

>  <result>
< 5 nM

$$$$
>  <smilesData>
Cc1ccc(C(=O)Nc2cncc(C(F)(F)F)c2)cc1OC1CN(c2cnn3ccc(N4CCOCC4)nc23)C1

>  <result>
< 5 nM

$$$$
>  <smilesData>
Cc1ccc(C(=O)Nc2cccc(CC(F)(F)F)c2)cc1OC1CN(c2cnn3ccncc23)C1

>  <result>
< 5 nM

$$$$

Here are 2 compounds. What values of Ki were reported for them?
1. COc1ccc(C(=O)Nc2cncc(C(F)(F)F)c2)cc1NC1CN(c2cnn3ccncc23)C1
2. Cc1ccc(C(=O)Nc2cncc(C(F)(F)F)c2)cc1OC1CN(c2cncc(C(F)F)c2)C1

(A)
["< 5 nM", "< 5 nM"]

* * *

# testedTarget: DDR2 (Homo sapiens (Human))
# assayDetails: DDR2 binding assay (LanthaScreen Europium Kinase Binding assay)
# condition: 5 nM DDR2, 10 nM Kinase Tracer 178, 1 h at rt; Ki from IC50 by Cheng-Prusoff; read-out: Ki DDR2
attributeMeasured: Ki

>  <compound>
Cc1ccc(C(=O)Nc2cncc(C(F)(F)F)c2)cc1S(=O)(=O)C1CN(c2cnn3ccncc23)C1 [Example 179]

>  <Ki>
25 to 100 nM

$$$$
>  <compound>
Cc1ccc(C(=O)Nc2cc(C(C)(C)C)on2)cc1NC1CN(c2cnn3ccncc23)C1 [Example 150]

>  <Ki>
25 to 100 nM

$$$$

Let us move to another entry and its Ki.
(Q) Requested read-out: Ki. Entry: Cc1ccc(C(=O)Nc2cncc(C(F)(F)F)c2)cc1OC1CN(c2ncnc3[nH]cc(C#N)c23)C1 [Example 173]
(A) 5 to 25 nM

* * *

Provide the reported pKi of each item.
# testedTarget: DDR2 (Homo sapiens (Human), UniProt Q16832)
# Sequence (Q16832 22-855): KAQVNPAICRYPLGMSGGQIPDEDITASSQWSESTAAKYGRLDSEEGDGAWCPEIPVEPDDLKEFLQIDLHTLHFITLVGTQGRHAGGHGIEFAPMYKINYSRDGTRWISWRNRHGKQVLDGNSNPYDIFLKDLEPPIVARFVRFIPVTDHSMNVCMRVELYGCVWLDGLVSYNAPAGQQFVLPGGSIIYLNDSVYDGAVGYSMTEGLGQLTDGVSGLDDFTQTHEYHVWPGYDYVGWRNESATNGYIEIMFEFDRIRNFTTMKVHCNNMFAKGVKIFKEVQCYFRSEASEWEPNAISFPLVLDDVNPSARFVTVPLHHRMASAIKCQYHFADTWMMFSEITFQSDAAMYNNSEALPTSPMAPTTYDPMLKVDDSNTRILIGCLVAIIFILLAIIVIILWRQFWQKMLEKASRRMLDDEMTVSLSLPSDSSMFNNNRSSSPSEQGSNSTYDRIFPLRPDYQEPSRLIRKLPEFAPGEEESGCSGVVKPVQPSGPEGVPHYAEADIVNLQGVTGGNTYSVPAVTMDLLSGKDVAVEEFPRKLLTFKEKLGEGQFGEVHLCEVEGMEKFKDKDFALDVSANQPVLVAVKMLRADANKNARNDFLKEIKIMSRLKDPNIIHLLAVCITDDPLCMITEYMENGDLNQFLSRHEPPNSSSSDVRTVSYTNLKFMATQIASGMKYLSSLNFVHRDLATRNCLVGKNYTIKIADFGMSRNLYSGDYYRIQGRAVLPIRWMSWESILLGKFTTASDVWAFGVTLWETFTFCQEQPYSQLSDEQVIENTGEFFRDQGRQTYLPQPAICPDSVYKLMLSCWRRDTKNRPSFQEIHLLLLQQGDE
# assayDetails: DDR2 binding assay (LanthaScreen Europium Kinase Binding assay)
# condition: 5 nM DDR2, 10 nM Kinase Tracer 178, 1 h at rt; Ki from IC50 by Cheng-Prusoff; read-out: Ki DDR2
pKi: −log10 of the molar value.

>  <smilesData>
Cc1ccc(C(=O)Nc2cncc(C(F)(F)F)c2)cc1OC1CN(c2cnn3ccc(N4CCC(CO)CC4)nc23)C1

>  <pKi>
< 7.00

$$$$
>  <smilesData>
CNc1ccn2ncc(N3CC(Oc4cc(C(=O)Nc5cncc(C(F)(F)F)c5)ccc4C)C3)c2n1

>  <pKi>
7.60 to 8.30

$$$$
>  <smilesData>
Cc1ccc(C(=O)Nc2cncc(C(F)(F)F)c2)cc1NC1CN(c2cncnc2)C1

>  <pKi>
7.00 to 7.60

$$$$

Here are 4 compounds. What values of pKi were reported for them?
1. COc1ccc(C(F)(F)F)cc1NC(=O)c1ccc(C)c(OC2CN(c3cnn4ccncc34)C2)c1
2. Cc1ccc(C(=O)Nc2cncc(C(F)(F)F)c2)cc1SC1CN(c2cnn3ccncc23)C1
3. O=C(Nc1cncc(C(F)(F)F)c1)c1ccc(OC(F)F)c(OC2CN(c3cnn4ccncc34)C2)c1
4. Cc1ccc(C(=O)Nc2cncc(C(F)(F)F)c2)cc1N(C)C1CN(c2cnn3ccncc23)C1

(A)
7.60 to 8.30
> 8.30
> 8.30
7.60 to 8.30

Here are 5 compounds. What values of pKi were reported for them?
1. Cc1ccc(C(=O)Nc2cncc(C(F)(F)F)c2)cc1OC1CN(c2cncc(C(N)=O)c2)C1
2. Cc1ccc(C(=O)Nc2cncc(C(F)(F)F)c2)cc1OC1CN(c2cnn3ccc(N4CCN(C)CC4)nc23)C1
3. Cc1ccc(C(=O)Nc2cncc(C(F)(F)F)c2)cc1OC1CN(c2cnn3ccncc23)C1
4. Cc1ccc(C(=O)Nc2cncc(C(F)(F)F)c2)cc1CC1CN(c2cnn3ccncc23)C1
5. Cc1ccc(C(=O)Nc2cncc(OC(F)(F)F)c2)cc1OC1CN(c2cnn3ccncc23)C1

(A)
1: 7.60 to 8.30; 2: 7.60 to 8.30; 3: > 8.30; 4: > 8.30; 5: > 8.30

Here are 4 compounds. What values of pKi were reported for them?
1. Cc1ccc(C(=O)Nc2cncc(C(F)(F)F)c2)cc1OC1CN(c2cncc(C(F)F)c2)C1
2. Cc1ccc(C(=O)Nc2cncc(C(F)(F)F)c2)cc1OC1CN(c2cnccc2C#N)C1
3. Cc1ccc(C(=O)Nc2cncc(C(F)(F)F)c2)cc1NC1CN(c2cncc(-c3cnn(C)c3)c2)C1
4. Cc1ccc(C(=O)Nc2cncc(C(F)(F)F)c2)cc1OC1CN(c2cncnc2)C1

(A)
7.60 to 8.30
> 8.30
7.60 to 8.30
7.60 to 8.30

* * *

Provide the reported pKi of each item.
# testedTarget: DDR1 (Homo sapiens (Human))
# assayDetails: DDR1 binding assay (LanthaScreen Europium Kinase Binding assay)
# condition: 5 nM DDR1, 20 nM Kinase Tracer 178, 1 h at rt; Ki from IC50 by Cheng-Prusoff; read-out: Ki DDR1
pKi: −log10 of the molar value.

Example cases with answers are listed next.
>  <compound>
Cc1ccc(C(=O)Nc2cncc(C(F)(F)F)c2)cc1OC1CN(c2cncc(-c3cnn(C)c3)c2)C1 [Example 143]

>  <testedTarget>
DDR1 (Homo sapiens (Human))

>  <pKi>
> 8.30

$$$$
>  <compound>
Cc1ccc(C(=O)Nc2cncc(C(F)(F)F)c2)cc1OC1CN(c2ncnc3[nH]cc(C#N)c23)C1 [Example 173]

>  <testedTarget>
DDR1 (Homo sapiens (Human))

>  <pKi>
> 8.30

$$$$
>  <compound>
Cc1ccc(C(=O)Nc2cncc(C(F)(F)F)c2)cc1S(=O)(=O)C1CN(c2cnn3ccncc23)C1 [Example 179]

>  <testedTarget>
DDR1 (Homo sapiens (Human))

>  <pKi>
7.60 to 8.30

$$$$

Here are 3 compounds. What values of pKi were reported for them?
1. Cc1ccc(C(=O)Nc2cncc(C(F)(F)F)c2)cc1OC1CN(c2cnn3ccc(N4CCC(CO)CC4)nc23)C1 [Example 180]
2. Cc1ccc(C(=O)Nc2cncc(C(F)(F)F)c2)cc1OC1CN(c2cnn3ccncc23)C1 [Example 136]
3. Cc1ccc(C(=O)Nc2cncc(C(F)(F)F)c2)cc1OC1CN(c2cnc3cnccn23)C1 [Example 146]

(A)
1. 7.60 to 8.30
2. > 8.30
3. > 8.30

Provenance of the data: patent US20260028328A1
